Catalogue of pIC50 values
MEASURED TARGET: endothiapepsin (Cryphonectria parasitica)
Sequence (P11838 90-419): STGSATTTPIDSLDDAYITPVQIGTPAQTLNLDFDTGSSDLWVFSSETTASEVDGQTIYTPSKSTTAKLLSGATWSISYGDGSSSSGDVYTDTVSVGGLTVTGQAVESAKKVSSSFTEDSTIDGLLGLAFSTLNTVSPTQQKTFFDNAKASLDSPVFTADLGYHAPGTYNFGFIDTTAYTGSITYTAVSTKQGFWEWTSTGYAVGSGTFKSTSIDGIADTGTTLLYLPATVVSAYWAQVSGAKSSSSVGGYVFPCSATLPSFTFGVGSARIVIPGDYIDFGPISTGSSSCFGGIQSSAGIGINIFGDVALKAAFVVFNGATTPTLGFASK
A value of pIC50 is the negative decimal logarithm of a concentration given in moles per litre.

Take a look at these entries with their results.
- MOLECULE: "N[C@@H](Cc1c[nH]c2ccccc12)C(=O)N/N=C/c1cccc(C(F)(F)F)c1 [compound 3]"
  REPORTED ENDPOINT: "pIC50"
  DATA VALUE: 3.61
- MOLECULE: "N[C@@H](Cc1c[nH]c2ccccc12)C(=O)N/N=C/c1ccc(C(F)(F)F)cc1 [compound 2]"
  REPORTED ENDPOINT: "pIC50"
  DATA VALUE: 5.15
- MOLECULE: "Cc1cccc(C)c1/C=N/NC(=O)[C@@H](N)Cc1c[nH]c2ccccc12 [compound 8]"
  REPORTED ENDPOINT: "pIC50"
  DATA VALUE: 4.52

Retrieve pIC50 measured for Cc1cccc(/C=N\NC(=O)[C@@H](N)Cc2c[nH]c3ccccc23)c1O [compound 5] and print it. 4.44

Retrieve pIC50 measured for Cc1ccccc1/C=N/NC(=O)[C@@H](N)Cc1c[nH]c2ccccc12 [compound 7] and print it. 4.23

Retrieve pIC50 measured for N[C@@H](Cc1c[nH]c2ccccc12)C(=O)N/N=C/c1ccccc1Br [compound 6] and print it. 4.26

Retrieve pIC50 measured for N[C@@H](Cc1c[nH]c2ccccc12)C(=O)N/N=C/c1ccccc1F [compound 4] and print it. 4.42

###

Catalogue of ΔGexpt, experimental Gibbs free energy of binding values
MEASURED TARGET: endothiapepsin (Cryphonectria parasitica, UniProt P11838)
Construct: Endothiapepsin was purified from Suparen; purchased DSM Food Specialties, Heerlen, The Netherlands (kindly provided) Suparen
Sequence (P11838 90-419): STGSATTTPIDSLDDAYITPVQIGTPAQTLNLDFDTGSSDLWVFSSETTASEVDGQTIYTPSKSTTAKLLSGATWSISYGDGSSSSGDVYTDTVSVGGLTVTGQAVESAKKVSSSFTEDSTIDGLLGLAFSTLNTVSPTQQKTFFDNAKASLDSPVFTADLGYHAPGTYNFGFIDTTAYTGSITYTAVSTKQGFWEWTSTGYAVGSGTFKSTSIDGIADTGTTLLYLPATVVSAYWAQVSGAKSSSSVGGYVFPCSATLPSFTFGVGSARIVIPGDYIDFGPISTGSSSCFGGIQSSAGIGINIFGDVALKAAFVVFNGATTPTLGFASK
METHOD SUMMARY: Fluorescence-based enzymatic inhibition assay (adapted from the HIV protease assay)
Format: biochemical
RUN CONDITIONS: derived from the experimentally determined IC50 values using the Cheng–Prusoff equation
The answer is to be given in kJ/mol; state only the numeric part.

Take a look at these entries with their results.
- CHEM SMILES: "N[C@@H](Cc1c[nH]c2ccccc12)C(=O)N/N=C/c1ccccc1F"
  DATA VALUE: -27.1
- CHEM SMILES: "Cc1cccc(C)c1/C=N/NC(=O)[C@@H](N)Cc1c[nH]c2ccccc12"
  DATA VALUE: -27.7
- CHEM SMILES: "N[C@@H](Cc1c[nH]c2ccccc12)C(=O)N/N=C/c1ccccc1Br"
  DATA VALUE: -26.2
- CHEM SMILES: "N[C@@H](Cc1c[nH]c2ccccc12)C(=O)N/N=C/c1ccccc1"
  DATA VALUE: -26.4
- CHEM SMILES: "Cc1cccc(/C=N\\NC(=O)[C@@H](N)Cc2c[nH]c3ccccc23)c1O"
  DATA VALUE: -27.2

Retrieve ΔGexpt, experimental Gibbs free energy of binding measured for N[C@@H](Cc1c[nH]c2ccccc12)C(=O)N/N=C/c1cccc(C(F)(F)F)c1 and print it. -22.5

Retrieve ΔGexpt, experimental Gibbs free energy of binding measured for N[C@@H](Cc1c[nH]c2ccccc12)C(=O)N/N=C/c1ccc(C(F)(F)F)cc1 and print it. -31.3

Retrieve ΔGexpt, experimental Gibbs free energy of binding measured for Cc1ccccc1/C=N/NC(=O)[C@@H](N)Cc1c[nH]c2ccccc12 and print it. -26.0
